Numbers sourced from paper PMC11460632.

Quick reference for % of binding to Link_TSG6 compared to the unmodified oligosaccharide of the same length among some compounds
# target.under.test: Link_TSG6 (Homo sapiens, UniProt P98066)
# Construct: made in house
# Sequence (P98066 36-129 limits assumed): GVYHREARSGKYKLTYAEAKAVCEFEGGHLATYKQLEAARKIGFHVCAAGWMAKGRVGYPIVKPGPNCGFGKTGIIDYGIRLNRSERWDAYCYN
# protocol.description: ITC of HA oligosaccharides binding to Link_TSG6
# study.conditions: ITC
Record the value in %, omitting the unit from your answer.

Below: 2 compounds and their reported % of binding to Link_TSG6 compared to the unmodified oligosaccharide of the same length.
cpd.smiles	value.measured
COc1ccc(C(=O)O)c(NC[C@H](NC(C)=O)[C@@H](O[C@@H]2O[C@H](C(=O)O)[C@@H](O[C@@H]3O[C@H](CO)[C@@H](O)[C@H](O[C@@H]4O[C@H](C(=O)O)[C@@H](O[C@@H]5O[C@H](CO)[C@@H](O)[C@H](O[C@@H]6O[C@H](C(=O)O)[C@@H](O)[C@H](O)[C@H]6O)[C@H]5NC(C)=O)[C@H](O)[C@H]4O)[C@H]3NC(C)=O)[C@H](O)[C@H]2O)[C@H](O)[C@H](O)CO)c1	238
COc1ccc(C(=O)O)c(NC[C@H](NC(C)=O)[C@@H](O[C@@H]2O[C@H](C(=O)O)[C@@H](O[C@@H]3O[C@H](CO)[C@@H](O)[C@H](O[C@@H]4O[C@H](C(=O)O)[C@@H](O[C@@H]5O[C@H](CO)[C@@H](O)[C@H](O[C@@H]6O[C@H](C(=O)O)[C@@H](O[C@@H]7O[C@H](CO)[C@@H](O)[C@H](O[C@@H]8O[C@H](C(=O)O)[C@@H](O)[C@H](O)[C@H]8O)[C@H]7NC(C)=O)[C@H](O)[C@H]6O)[C@H]5NC(C)=O)[C@H](O)[C@H]4O)[C@H]3NC(C)=O)[C@H](O)[C@H]2O)[C@H](O)[C@H](O)CO)c1	21

Value lookup for % of binding to Link_TSG6 compared to the unmodified oligosaccharide of the same length; key = `CC(=O)N[C@H]1[C@H](O[C@H]2[C@H](O)[C@@H](O)[C@H](O[C@H]3[C@H](O)[C@@H](CO)O[C@@H](O[C@H]4[C@H](O)[C@@H](O)[C@H](O[C@H]5[C@H](O)[C@@H](CO)O[C@@H](O[C@H]6[C@H](O)[C@@H](O)[C@H](O[C@@H]([C@H](O)[C@H](O)CO)[C@H](CNc7ccc8c(c7)CCC8)NC(C)=O)O[C@@H]6C(=O)O)[C@@H]5NC(C)=O)O[C@@H]4C(=O)O)[C@@H]3NC(C)=O)O[C@@H]2C(=O)O)O[C@H](CO)[C@@H](O)[C@@H]1O[C@@H]1O[C@H](C(=O)O)[C@@H](O)[C@H](O)[C@H]1O`
207
